Values were extracted from ChEMBL document CHEMBL1201862.

- Test system: Hs-578T
- assay.explanation: NCI tumour cell line growth inhibition, 48 h
Active and inactive are the calls of the source. No stated cut-off is given here; in the data, active = GI50 up to about 1.1 µM and inactive = higher.
Classes used: Y for active, N for inactive

# compound, label.value
data = [
    ("CNc1ccc(Cl)cc1C(=O)N1CCC[C@H]1CO", "N"),
    ("CCC1CCN=C(Cn2cc(C)c(=O)[nH]c2=O)N1 (stereo not drawn)", "N"),
    ("C=C1CCCC(C)(C)C1CCC1(C)CCC(C(C)C(=O)OC)OO1 (stereo not drawn)", "N"),
    ("CC1C2(C)OC(=N)C(C#N)(C(c3cccc([N+](=O)[O-])c3)O2)C1(C#N)C#N (stereo not drawn)", "N"),
    ("CC[C@@]1(O)C(=O)OCc2c1cc1n(c2=O)Cc2c-1nc1ccccc1c2/C=N\\NC(=O)C(N)Cc1ccc(O)cc1 (stereo partly drawn)", "N"),
    ("C1=Cc2nccc3cc4c(c(c23)N1)OCO4", "N"),
    ("COc1ccc2c(c1)C(=O)CCc1cc(OC)c(OC)c(OC)c1-2", "Y"),
    ("CCOC(=O)C1=C(C)N(Cc2ccc(Cl)cc2Cl)C2(O)C=CC(=O)C3C(=O)N(c4ccccc4)C(=O)C132 (stereo not drawn)", "N"),
]

* * *

GI50 listing for selected compounds.
- System: CAKI-1
- assay.explanation: NCI tumour cell line growth inhibition, 48 h
Calls of active or inactive are those of the source. Cut-off read from the data, not from the text of the source: active = GI50 up to about 1.1 µM and inactive = higher.

# compound, test.target, GI50
records = [
    ("O=c1c2ccccc2[se]n1-c1cccnc1", "CAKI-1", "42.3 µM (inactive)"),
    ("O=C1CC(c2ccccc2)n2c(nc3ccccc32)N1 (centres undefined)", "CAKI-1", "35.3 µM (inactive)"),
    ("COc1ccc2oc(=N)c(C(=O)Nc3cccc4ccccc34)cc2c1", "CAKI-1", "29.5 µM (inactive)"),
    ("CCCCCCC(O)C(O)CCC(O)C1CCC(CCCCC(O)CC2=CC(C)OC2=O)O1 (centres undefined)", "CAKI-1", "2.2 µM (inactive)"),
    ("COC(=O)C1CCC(=O)N1CN(C(C)=O)c1ccccc1Cl (centres undefined)", "CAKI-1", "> 100 µM (inactive)"),
    ("CC(C)NC(=O)OCc1c(COC(=O)NC(C)C)c(-c2cc[n+](COC(=O)CC(C)(C)C)cc2)n2c1CCC2", "CAKI-1", "> 100 µM (inactive)"),
    ("CCOC(=O)c1[nH]cc(C)c1-c1c[nH]c2ccccc12", "CAKI-1", "37.1 µM (inactive)"),
    ("CC(C)(C)n1c(=O)[nH]n(C2NN=Cc3cccc4cccc2c34)c1=O (centres undefined)", "CAKI-1", "27.5 µM (inactive)"),
    ("CC(=O)Nc1c(C)cc(OCC(=O)O)cc1C", "CAKI-1", "> 100 µM (inactive)"),
]

* * *

- System: K562
- assay.explanation: NCI tumour cell line growth inhibition, 48 h
The source made the active and inactive calls. Cut-off read from the data, not from the text of the source: active = GI50 up to about 1.1 µM and inactive = higher. Where a SMILES comes first, the peptide text is derived from it. [ ]: non-standard residue; d: D form. The star is where a group is joined. Octanoyl = CCCCCCCC(=O)*; Aib = CC(C)(N)C(=O)O; tBu = CC(C)(C)*
Possible outcomes: True = active, False = inactive

# molecule, label.value
measured = [
    ("[N-]=[N+]=Nc1ccccc1-[n+]1noc([O-])c1Br", "False"),
    ("CC(C)NC(=O)OCc1c(COC(=O)NC(C)C)c(-c2cc[n+](COC(=O)CC(C)(C)C)cc2)n2c1CCC2", "False"),
    ("C1CCC(OC2CSC2)OC1 (configuration not stated)", "False"),
    ("CCOC(=O)N1CCC(N[C@@H]2c3cc4c(cc3[C@@H](c3cc(OC)c(O)c(OC)c3)[C@H]3C(=O)OC[C@@H]32)OCO4)CC1", "False"),
    ("O/N=N/c1ccccn1.OCC1OC2OC3C(CO)OC(OC4C(CO)OC(OC5C(CO)OC(OC6C(CO)OC(OC7C(CO)OC(OC1C(O)C2O)C(O)C7O)C(O)C6O)C(O)C5O)C(O)C4O)C(O)C3O (configuration not stated)", "False"),
    ("CCOC(=O)Nc1nn(C)/c(=N/Cc2ccccc2)s1", "False"),
    ("Oc1ccc(-c2nc(-c3ccc4ccccc4n3)c(-c3ccc(F)cc3)[nH]2)cc1", "False"),
    ("N#Cc1c(N)nc(SCc2ccccc2)c(C#N)c1-c1ccc(O)cc1", "False"),
    ("O=C(O)C[S+]([O-])c1ccc2c3c(cccc13)C(=O)c1ccccc1-2 (configuration not stated)", "False"),
    ("O=C1OC(O)c2cc3c(cc21)OCO3 (configuration not stated)", "False"),
    ("CC(=O)c1ccc(Nc2c3ccccc3nc3occc23)cc1", "True"),
    ("CCCCCCCC(=O)NC(C)(C)C(=O)NC(COC(C)(C)C)C(=O)NC(CC(C)C)C(=O)NC(C)(C)C(=O)NC(COC(C)(C)C)C(=O)NC(COC(C)(C)C)C(=O)NC(CC(C)C)C(=O)NC(C)(C)C(=O)NC(COC(C)(C)C)C(=O)NC(C(=O)NC(CC(C)C)C(=O)OC)C(C)CC (configuration not stated) (Octanoyl-[Aib]S(tBu)L[Aib]S(tBu)S(tBu)L[Aib]S(tBu)IL-OMe; configuration not given here)", "False"),
]

* * *

- Test system: RPMI-8226
- assay.explanation: NCI tumour cell line growth inhibition, 48 h
Active and inactive are the calls of the source. Cut-off read from the data, not from the text of the source: active = GI50 up to about 1.1 µM and inactive = higher.
quantity.name: GI50

# molecule, value.measured
data = [
    ("CCCC(=O)OC[n+]1ccc(-c2c(COC(=O)NC(C)C)c(COC(=O)NC(C)C)c3n2CCC3)cc1", "> 100 µM (inactive)"),
    ("CN(O)C(=S)c1ccccc1", "0.325 µM (active)"),
    ("COc1ccc(-c2nc(SCC(=O)N/N=C/c3ccc([N+](=O)[O-])cc3)[nH]c2-c2ccc(OC)cc2)cc1", "8.91 µM (inactive)"),
    ("COc1cc(C(C)O)c[n+](Cc2ccccc2)c1 (centres undefined)", "> 100 µM (inactive)"),
    ("COC(=O)C1Cc2c(n(C)c3ccccc23)C(CCC(=O)O)N1Cc1ccccc1 (centres undefined)", "16.1 µM (inactive)"),
    ("O=C(O)C1CCCN1Cc1ccc2c(c1)OCO2 (centres undefined)", "> 100 µM (inactive)"),
    ("Oc1ncnc2c1nnn2CCCn1nnc2c(O)ncnc21", "> 100 µM (inactive)"),
    ("O=C1c2ccccc2C(=O)c2c1ccc1c3ccccc3n(-c3ccccc3)c21", "7.24 µM (inactive)"),
    ("CCN(CC)c1ncnc2c1ncn2CCNC(CO)(CO)CO", "> 100 µM (inactive)"),
]

* * *

# GI50 per entry for HCT-15

# molecule, GI50
measured = [
    ("CC(C)OC(=O)Nc1c([N+](=O)[O-])cc(C(F)(F)F)cc1[N+](=O)[O-]", "> 100 µM"),
    ("Cc1cccc(NC(=O)/C=C/c2ccc([N+](=O)[O-])cc2)c1", "> 35.1 µM"),
    ("Cc1cc(-c2ccccc2)nc(Nc2cc3ccccc3[nH]2)n1", "> 100 µM"),
    ("O=C(O/N=C1/CCC/C1=C\\c1ccccc1)c1ccc(Cl)cc1", "> 100 µM"),
    ("Cc1cc(C2(c3cc(C)c(O)c4ncccc34)OC(=O)c3ccccc32)c2cccnc2c1O", "< 0.001 µM"),
]

* * *

- Tested on: OVCAR-8
- assay.explanation: NCI tumour cell line growth inhibition, 48 h
Calls of active or inactive are those of the source. Rule as the data show it: active = GI50 up to about 1.1 µM and inactive = higher.

# compound, test.target, GI50
measured = [
    ("CC(=O)Nc1ccc(/C=C/[N+](=O)[O-])cc1", "OVCAR-8", "6.07 µM (inactive)"),
    ("Cc1cc(=O)oc2c3c(ccc12)OC(c1ccc(Br)cc1)CC3=O (configuration not stated)", "OVCAR-8", "5.86 µM (inactive)"),
    ("CCOC(=O)c1[nH]cc(C)c1-c1c[nH]c2ccccc12", "OVCAR-8", "27.1 µM (inactive)"),
    ("COCCN(C(=O)c1ccccc1)C1CCC2(SCCS2)c2[nH]c3ccccc3c21 (configuration not stated)", "OVCAR-8", "25.6 µM (inactive)"),
    ("O=c1[nH]cc(/N=C/c2cc(Cl)cc(Cl)c2O)c(=O)[nH]1", "OVCAR-8", "43.1 µM (inactive)"),
    ("CN(C(=O)c1ccc(Cl)cc1)C(=S)N1CCN(c2ccccc2)CC1", "OVCAR-8", "> 100 µM (inactive)"),
    ("OC(c1ccccc1)(c1ccccc1)c1ccccn1", "OVCAR-8", "> 100 µM (inactive)"),
    ("CCOC(=O)NC(=O)c1cn(CCOC(=O)NCCCCCCNC(=O)OCCn2cc(C(=O)NC(=O)OCC)c(=O)[nH]c2=O)c(=O)[nH]c1=O", "OVCAR-8", "> 100 µM (inactive)"),
    ("NNC(=O)c1c(-c2cccnc2)cnc2ccccc12", "OVCAR-8", "> 100 µM (inactive)"),
    ("CCCSc1ccc2[nH]c(N3C(=O)/C(=C/c4ccco4)N=C3c3ccccc3)cc2c1", "OVCAR-8", "> 50 µM (inactive)"),
    ("CCNc1cc2c(cc1O)CC[C@@H]1[C@@H]2CC[C@]2(C)[C@@H](O)CC[C@@H]12", "OVCAR-8", "11.7 µM (inactive)"),
    ("O=S(=O)(O)c1ccc2c(/N=N/c3ccc(S(=O)(=O)O)c4ccccc34)c(O)c(S(=O)(=O)O)cc2c1", "OVCAR-8", "> 100 µM (inactive)"),
]
